- experiment.description: cytotoxicity against MCF7 breast carcinoma cell line
- Format: cell-based
- settings: human, MCF7 breast carcinoma cells
readout.type: IC50 (nM)
Hi! Could you send only the number? It should be in nM, unit omitted.

[Q] Quick check: IC50 of CO[C@H]([C@H](O)CC(=O)[C@@H](C)[C@@H](O)CC[C@@H](C)[C@@H]1O[C@]2(CC[C@@H](C)[C@H](CC[C@H](C)C(C)=O)O2)CC[C@@H]1C)[C@H](OC(=O)C[C@@H](O)C1=C(C)C(=O)OC1=O)C(C)C [compound 1, Tautomycin, reference compound] ?
[A] 1800

----------
- experiment.description: cytotoxicity against HT29 colon adenocarcinoma cell line
- Type: cell-based
- settings: human, HT29 colon adenocarcinoma cells
readout.type: pIC50
Kindly note that pIC50 refers to -log10 of the concentration in mol/L and answer with the value alone.

[Q] Entry CO[C@H]([C@H](O)CC(=O)[C@@H](C)[C@@H](O)CC[C@@H](C)[C@@H]1O[C@]2(CC[C@@H](C)[C@H](CC[C@H](C)C(C)=O)O2)CC[C@@H]1C)[C@H](OC(=O)C[C@@H](O)C1=C(C)C(=O)OC1=O)C(C)C [compound 1, Tautomycin, reference compound] : reported pIC50 = ?
[A] 6.23
